The measured values listed here are drawn from patent US20250282885A1.

ASSAYED_SYSTEM: T1, human Sdc2 (human, UniProt P34741 19-144, limits assumed)
T1 construct: Antigen of the Octet tandem binning, loaded on biosensors at 100 nM; also called huSdc2; hSdc2
T1 sequence (P34741 19-144 limits assumed): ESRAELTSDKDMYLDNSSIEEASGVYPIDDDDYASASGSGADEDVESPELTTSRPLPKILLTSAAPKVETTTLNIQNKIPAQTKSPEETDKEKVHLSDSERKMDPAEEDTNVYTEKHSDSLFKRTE
EXPERIMENT_NOTES: Octet tandem binning; saturating Ab m7 19844-R3-P1-E07
METRIC: raw competing-Ab binding signal
Reply with just the number.

INSERT INTO measurements (binder, metric, measured_value) VALUES
  ('8-G17-A (antibody, V domains shown, PentaMice hybridoma clone, made recombinantly in CHO cells) VH: EVQLVESGGGLVKPGGSLKLSCEASGITFSNYVMSWVRQTPEKRLEWVATISDGGSYTYYPDNLKGRFTISRDNAKNNLYLQMSHLKSEDTAMYYCVRDRYDYDGRVYAMDYWGQGTSVTVSS VL: DVVMTQTPLSLPVSLGDQASISCRSSQSLVHSNGNTYLHWYLQKPGQSPKLLIYKVSNRFSGVPDRFSGSGSGTDFTLKITRVEAEDLGVYFCSQSTHVPWTFGGGTKLEIKR', 'raw competing-Ab binding signal', 0.871),
  ('R4M-P3-E06 (antibody, human IgG1, kappa, V domains shown, human IgG1 kappa from the phage campaign) VH: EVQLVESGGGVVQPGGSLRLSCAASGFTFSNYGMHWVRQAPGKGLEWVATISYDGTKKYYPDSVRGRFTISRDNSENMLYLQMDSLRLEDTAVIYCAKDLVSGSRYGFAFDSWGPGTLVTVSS VL: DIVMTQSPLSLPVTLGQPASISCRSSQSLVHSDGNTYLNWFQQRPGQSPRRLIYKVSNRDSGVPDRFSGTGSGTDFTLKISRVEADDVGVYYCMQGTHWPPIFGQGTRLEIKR', 'raw competing-Ab binding signal', 0.247);

[ask] I am curious: what raw competing-Ab binding signal value has been reported for 6-N03-A (antibody, mouse IgG1, kappa, V domains shown) VH: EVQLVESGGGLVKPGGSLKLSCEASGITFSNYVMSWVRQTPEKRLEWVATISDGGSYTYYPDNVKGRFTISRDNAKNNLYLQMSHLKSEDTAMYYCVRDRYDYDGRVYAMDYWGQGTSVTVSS VL: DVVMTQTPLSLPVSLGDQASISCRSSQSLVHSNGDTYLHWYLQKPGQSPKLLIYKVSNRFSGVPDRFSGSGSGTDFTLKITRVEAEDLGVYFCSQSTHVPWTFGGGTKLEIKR ?
[reply] 0.486
